# Tested on: carrageenan-induced paw edema
# Measurement Protocol: carrageenan-induced paw edema technique (anti-inflammatory)
# Assay type: in vivo
# Condition Description: 24 h
Below, each of the compounds is paired with its reported % inhibition of edema value.

{"Compound": "CC[C@H](C)C(NC(=O)C(C)c1ccc(CC(C)C)cc1)C(=O)O (stereo in doubt) [Compound 5f]", "Unit Abbreviation": "%", "% inhibition of edema": 47}
{"Compound": "CC(C)Cc1ccc(C(C)C(=O)NCCCC(=O)O)cc1 (stereo not drawn) [Compound 5d]", "Unit Abbreviation": "%", "% inhibition of edema": 58}
{"Compound": "CC[C@H](C)[C@@H](NC(=O)C(C)c1ccc(CC(C)C)cc1)C(=O)Nc1ccc(O)cc1 (stereo partly drawn) [Compound 7f]", "Unit Abbreviation": "%", "% inhibition of edema": 42}
{"Compound": "CC(C)Cc1ccc(C(C)C(=O)N[C@@H](CCC(N)=O)C(=O)O)cc1 (stereo partly drawn) [Compound 5j]", "Unit Abbreviation": "%", "% inhibition of edema": 47}
{"Compound": "CC(C)Cc1ccc(C(C)C(=O)NCCCC(=O)Nc2ccc(O)cc2)cc1 (stereo not drawn) [Compound 7d]", "Unit Abbreviation": "%", "% inhibition of edema": 53}
{"Compound": "CSCC[C@H](NC(=O)C(C)c1ccc(CC(C)C)cc1)C(=O)O (stereo partly drawn) [Compound 5i]", "Unit Abbreviation": "%", "% inhibition of edema": 79}
{"Compound": "CC(C)Cc1ccc(C(C)C(=O)NCCC(=O)O)cc1 (stereo not drawn) [Compound 5c]", "Unit Abbreviation": "%", "% inhibition of edema": 21}
{"Compound": "CC(C)Cc1ccc(C(C)C(=O)NCC(=O)O)cc1 (stereo not drawn) [Compound 5a, (2-(4-Isobutylphenyl)propanoyl)glycine]", "Unit Abbreviation": "%", "% inhibition of edema": 68}
{"Compound": "CC(C)Cc1ccc(C(C)C(=O)NCCC(=O)Nc2ccc(O)cc2)cc1 (stereo not drawn) [Compound 7c]", "Unit Abbreviation": "%", "% inhibition of edema": 0}
{"Compound": "CC(C)Cc1ccc(C(C)C(=O)N[C@@H](CCC(N)=O)C(=O)Nc2ccc(O)cc2)cc1 (stereo partly drawn) [Compound 7j]", "Unit Abbreviation": "%", "% inhibition of edema": 32}
{"Compound": "CC(C)Cc1ccc(C(C)C(=O)N[C@@H](Cc2ccccc2)C(=O)Nc2ccc(O)cc2)cc1 (stereo partly drawn) [Compound 7e]", "Unit Abbreviation": "%", "% inhibition of edema": 11}
{"Compound": "CC(C)Cc1ccc(C(C)C(=O)N[C@H](C(=O)O)C(C)C)cc1 (stereo partly drawn) [Compound 5h]", "Unit Abbreviation": "%", "% inhibition of edema": 84}
{"Compound": "CC(C)Cc1ccc(C(C)C(=O)N[C@@H](C)C(=O)Nc2ccc(O)cc2)cc1 (stereo partly drawn) [Compound 7b]", "Unit Abbreviation": "%", "% inhibition of edema": 5}
{"Compound": "CC(C)Cc1ccc(C(C)C(=O)N[C@@H](CC(C)C)C(=O)Nc2ccc(O)cc2)cc1 (stereo partly drawn) [Compound 7g]", "Unit Abbreviation": "%", "% inhibition of edema": 37}
{"Compound": "CSCC[C@H](NC(=O)C(C)c1ccc(CC(C)C)cc1)C(=O)Nc1ccc(O)cc1 (stereo partly drawn) [Compound 7i]", "Unit Abbreviation": "%", "% inhibition of edema": 5}
{"Compound": "CC(C)Cc1ccc(C(C)C(=O)N[C@@H](C)C(=O)O)cc1 (stereo partly drawn) [Compound 5b]", "Unit Abbreviation": "%", "% inhibition of edema": 32}
{"Compound": "CC(C)Cc1ccc(C(C)C(=O)N[C@@H](Cc2ccccc2)C(=O)O)cc1 (stereo partly drawn) [Compound 5e]", "Unit Abbreviation": "%", "% inhibition of edema": 74}
{"Compound": "CC(C)Cc1ccc(C(C)C(=O)N[C@H](C(=O)Nc2ccc(O)cc2)C(C)C)cc1 (stereo partly drawn) [Compound 7h]", "Unit Abbreviation": "%", "% inhibition of edema": 21}

* * *

# Target Desc: COX-2 (Homo sapiens)
# Measurement Protocol: COX-1/2 bio-assay: COX-2
# Format: biochemical
# Condition Description: selectivity index COX-2/COX-1
Rule: measured SI(COX-2/COX-1) below 30 gets yes (1); anything equal to or greater than 30 gets no (0).

{"Compound": "CC(C)Cc1ccc(C(C)C(=O)N[C@@H](CCC(N)=O)C(=O)Nc2ccc(O)cc2)cc1 (stereo partly drawn)", "Classification": "yes (1)"}
{"Compound": "CC(C)Cc1ccc(C(C)C(=O)NCC(=O)Nc2ccc(O)cc2)cc1 (stereo not drawn)", "Classification": "yes (1)"}
{"Compound": "CC[C@H](C)[C@@H](NC(=O)C(C)c1ccc(CC(C)C)cc1)C(=O)Nc1ccc(O)cc1 (stereo partly drawn)", "Classification": "yes (1)"}
{"Compound": "CC(C)Cc1ccc(C(C)C(=O)N[C@@H](CC(C)C)C(=O)Nc2ccc(O)cc2)cc1 (stereo partly drawn)", "Classification": "no (0)"}
{"Compound": "CC(C)Cc1ccc(C(C)C(=O)N[C@@H](Cc2ccccc2)C(=O)Nc2ccc(O)cc2)cc1 (stereo partly drawn)", "Classification": "yes (1)"}
{"Compound": "CC(C)Cc1ccc(C(C)C(=O)N[C@H](C(=O)Nc2ccc(O)cc2)C(C)C)cc1 (stereo partly drawn)", "Classification": "yes (1)"}

* * *

# Test system: carrageenan-induced paw edema
# Measurement Protocol: carrageenan-induced paw edema technique (anti-inflammatory)
# Format: in vivo
# Condition Description: 24 h
Endpoint Label: % inhibition of edema (%)

{"Molecule": "CC(C)Cc1ccc(C(C)C(=O)N[C@@H](CC(C)C)C(=O)O)cc1 (stereo partly shown) [Compound 5g]", "Measurement": 42}
{"Molecule": "CC(C)Cc1ccc(C(C)C(=O)O)cc1 (stereo not shown) [Ibuprofen, reference compound]", "Measurement": 32}
{"Molecule": "CC(C)Cc1ccc(C(C)C(=O)NCC(=O)Nc2ccc(O)cc2)cc1 (stereo not shown) [Compound 7a]", "Measurement": 42}
{"Molecule": "COc1ccc2c(c1)c(CC(=O)O)c(C)n2C(=O)c1ccc(Cl)cc1 [Indomethacin, reference compound]", "Measurement": 53}

* * *

# Target Desc: COX-2 (Homo sapiens, UniProt P35354)
# Sequence (P35354 18-604): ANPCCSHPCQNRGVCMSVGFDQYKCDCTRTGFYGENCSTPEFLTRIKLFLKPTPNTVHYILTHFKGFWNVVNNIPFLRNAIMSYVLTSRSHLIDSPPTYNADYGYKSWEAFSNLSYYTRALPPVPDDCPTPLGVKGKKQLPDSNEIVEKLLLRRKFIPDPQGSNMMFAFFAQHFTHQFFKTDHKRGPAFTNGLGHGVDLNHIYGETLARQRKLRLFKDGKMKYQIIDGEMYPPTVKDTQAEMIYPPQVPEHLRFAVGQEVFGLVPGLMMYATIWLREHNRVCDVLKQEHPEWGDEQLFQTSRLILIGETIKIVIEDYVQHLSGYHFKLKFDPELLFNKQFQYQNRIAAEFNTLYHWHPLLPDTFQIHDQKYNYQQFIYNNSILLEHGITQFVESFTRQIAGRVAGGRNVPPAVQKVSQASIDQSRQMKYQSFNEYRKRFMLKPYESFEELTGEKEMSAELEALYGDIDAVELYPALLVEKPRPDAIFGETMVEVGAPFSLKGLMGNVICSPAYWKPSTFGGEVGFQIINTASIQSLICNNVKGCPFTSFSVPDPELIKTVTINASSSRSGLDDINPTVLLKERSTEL
Measured IC50, listed per entry.
Endpoint Label: IC50

{"Compound": "CC[C@H](C)[C@@H](NC(=O)C(C)c1ccc(CC(C)C)cc1)C(=O)Nc1ccc(O)cc1 (stereo partly drawn)", "Target Desc": "COX-2 (Homo sapiens, UniProt P35354)", "Measurement": "141 µM"}
{"Compound": "CC(C)Cc1ccc(C(C)C(=O)NCC(=O)Nc2ccc(O)cc2)cc1 (stereo not drawn)", "Target Desc": "COX-2 (Homo sapiens, UniProt P35354)", "Measurement": "78.3 µM"}
{"Compound": "CC(C)Cc1ccc(C(C)C(=O)N[C@@H](Cc2ccccc2)C(=O)Nc2ccc(O)cc2)cc1 (stereo partly drawn)", "Target Desc": "COX-2 (Homo sapiens, UniProt P35354)", "Measurement": "69.8 µM"}
{"Compound": "CC(C)Cc1ccc(C(C)C(=O)N[C@@H](CCC(N)=O)C(=O)Nc2ccc(O)cc2)cc1 (stereo partly drawn)", "Target Desc": "COX-2 (Homo sapiens, UniProt P35354)", "Measurement": "116 µM"}
{"Compound": "CC(C)Cc1ccc(C(C)C(=O)N[C@@H](CC(C)C)C(=O)Nc2ccc(O)cc2)cc1 (stereo partly drawn)", "Target Desc": "COX-2 (Homo sapiens, UniProt P35354)", "Measurement": "144 µM"}
{"Compound": "CC(C)Cc1ccc(C(C)C(=O)N[C@H](C(=O)Nc2ccc(O)cc2)C(C)C)cc1 (stereo partly drawn)", "Target Desc": "COX-2 (Homo sapiens, UniProt P35354)", "Measurement": "133 µM"}

Hey, just so you know, these numbers are from patent US11850220B2.
